- Target Desc: T1, recombinant hSIRPb-His (Antibodies-online, reference ABIN3077231) (human, UniProt Q5TFQ8 30-371)
- T1 construct: also called SIRPb-His (Blitz); not shown: His tag
- T1 sequence (Q5TFQ8 30-371): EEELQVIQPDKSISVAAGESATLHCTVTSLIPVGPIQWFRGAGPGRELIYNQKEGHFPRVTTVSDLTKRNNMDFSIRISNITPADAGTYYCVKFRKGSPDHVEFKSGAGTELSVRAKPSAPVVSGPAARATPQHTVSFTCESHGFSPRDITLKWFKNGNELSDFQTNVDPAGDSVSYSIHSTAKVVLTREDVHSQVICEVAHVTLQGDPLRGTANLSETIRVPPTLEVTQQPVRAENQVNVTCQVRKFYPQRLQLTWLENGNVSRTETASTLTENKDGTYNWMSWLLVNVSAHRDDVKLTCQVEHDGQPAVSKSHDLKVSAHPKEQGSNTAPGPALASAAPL
- Experiment Description: BLI (Blitz); SIRPb-His on Ni-NTA biosensor, antibody at 20 ug/ml [B, table A]

>  <Binder>
HALA (antibody, human IgG4 S228P, kappa, V domains shown, humanized 18D5 variant; also called humanized 18D5 variant HALA) VH: EVQLVQSGAEVKKPGESLRISCKASGYTFTSYWVHWVRQMPGKGLEWIGNIDPSDSDTHYNQKFKDHVTLSVDKSISTAYLQLSSLKASDTAMYYCVRGGTGTMAWFAYWGQGTLVTVSS VL: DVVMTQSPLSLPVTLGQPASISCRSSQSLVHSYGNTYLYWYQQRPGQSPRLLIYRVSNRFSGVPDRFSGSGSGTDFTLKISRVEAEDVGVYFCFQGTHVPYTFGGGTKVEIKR

>  <koff [s⁻¹]>
0.00085

$$$$
>  <Binder>
HEFLA (antibody, human IgG4 S228P, kappa, V domains shown, humanized 18D5 variant) VH: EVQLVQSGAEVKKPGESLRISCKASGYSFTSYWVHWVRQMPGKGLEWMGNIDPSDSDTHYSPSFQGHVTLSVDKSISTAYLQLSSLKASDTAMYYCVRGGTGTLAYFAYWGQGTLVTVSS VL: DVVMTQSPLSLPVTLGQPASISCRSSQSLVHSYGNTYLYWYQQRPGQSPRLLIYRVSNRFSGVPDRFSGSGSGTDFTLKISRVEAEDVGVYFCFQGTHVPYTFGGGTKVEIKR

>  <koff [s⁻¹]>
0.00122

$$$$
